- assayed_target: LIM domain kinase 2 (Homo sapiens, UniProt P53671)
- Sequence (P53671 whole entry, the tested form may be a part): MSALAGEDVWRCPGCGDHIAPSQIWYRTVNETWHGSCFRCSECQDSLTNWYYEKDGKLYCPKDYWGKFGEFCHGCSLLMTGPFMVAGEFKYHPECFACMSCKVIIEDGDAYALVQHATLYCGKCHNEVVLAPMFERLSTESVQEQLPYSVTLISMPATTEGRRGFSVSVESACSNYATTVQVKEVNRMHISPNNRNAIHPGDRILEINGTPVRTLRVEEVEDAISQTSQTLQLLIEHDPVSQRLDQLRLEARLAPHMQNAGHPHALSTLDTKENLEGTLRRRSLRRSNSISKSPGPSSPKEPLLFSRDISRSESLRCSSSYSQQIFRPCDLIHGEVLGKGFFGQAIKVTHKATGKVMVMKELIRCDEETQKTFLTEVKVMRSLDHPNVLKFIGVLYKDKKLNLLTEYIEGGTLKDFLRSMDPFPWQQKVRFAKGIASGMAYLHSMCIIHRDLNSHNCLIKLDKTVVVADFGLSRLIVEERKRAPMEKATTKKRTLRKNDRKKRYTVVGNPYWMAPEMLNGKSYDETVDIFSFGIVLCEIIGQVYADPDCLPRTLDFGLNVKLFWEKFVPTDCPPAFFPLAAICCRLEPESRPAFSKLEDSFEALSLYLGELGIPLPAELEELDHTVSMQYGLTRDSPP
pKd: −log10 of the molar value.
outcome_measure: pKd

[
  {
    "molecular_string": "CS(=O)(=O)CCCOc1cccc2c1ccn2-c1ccnc(N[C@H]2CC[C@H](C(=O)N3CCC(O)CC3)CC2)n1",
    "outcome_measure": "pKd",
    "measured_value": 5.55
  }
]

----------
- assayed_target: Mitogen-activated protein kinase 11 (Homo sapiens, UniProt Q15759)
- Sequence (Q15759 whole entry): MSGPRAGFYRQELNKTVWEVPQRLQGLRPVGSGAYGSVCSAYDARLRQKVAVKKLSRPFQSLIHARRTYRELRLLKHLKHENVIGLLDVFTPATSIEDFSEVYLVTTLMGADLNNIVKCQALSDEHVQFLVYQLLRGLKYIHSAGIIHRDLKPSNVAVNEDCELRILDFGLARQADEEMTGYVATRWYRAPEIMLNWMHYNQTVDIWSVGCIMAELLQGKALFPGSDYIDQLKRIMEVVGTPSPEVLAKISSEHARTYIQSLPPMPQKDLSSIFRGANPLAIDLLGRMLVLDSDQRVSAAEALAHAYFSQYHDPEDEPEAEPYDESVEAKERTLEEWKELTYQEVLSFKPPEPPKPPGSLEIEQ
- assay_protocol: Binding affinity to p38-beta (unknown origin)

[
  {
    "molecular_string": "CS(=O)(=O)CCCOc1cccc2c1ccn2-c1ccnc(N[C@H]2CC[C@H](C(=O)N3CCC(O)CC3)CC2)n1",
    "units": "µM",
    "Kd": 3.2
  }
]

----------
- assayed_target: Phosphorylase b kinase gamma catalytic chain, liver/testis isoform (Homo sapiens) (UniProt P15735)
- Sequence (P15735 whole entry, canonical isoform): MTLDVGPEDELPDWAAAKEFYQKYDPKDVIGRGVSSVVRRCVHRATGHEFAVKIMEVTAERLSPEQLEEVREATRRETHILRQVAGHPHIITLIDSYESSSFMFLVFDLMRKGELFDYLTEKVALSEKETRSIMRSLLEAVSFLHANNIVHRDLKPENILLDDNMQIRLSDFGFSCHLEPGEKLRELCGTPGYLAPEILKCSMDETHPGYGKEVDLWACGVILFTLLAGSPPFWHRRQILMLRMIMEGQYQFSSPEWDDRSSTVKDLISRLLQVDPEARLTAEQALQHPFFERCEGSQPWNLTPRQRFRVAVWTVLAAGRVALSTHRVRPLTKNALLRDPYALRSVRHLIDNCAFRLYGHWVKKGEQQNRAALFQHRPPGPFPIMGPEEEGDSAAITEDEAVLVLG
- assay_protocol: Competitive binding affinity to PHKG2 (unknown origin) at 10 uM in presence of ATP relative to control
outcome_measure: inhibition (%)

[
  {
    "molecular_string": "O=C([C@H]1CC[C@H](Nc2nccc(-n3nnc4ccccc43)n2)CC1)N1CCOCC1",
    "units": "%",
    "relational_operator": "<",
    "measured_value": 50
  },
  {
    "molecular_string": "O[C@H]1CC[C@H](Nc2nccc(-n3ccc4ccccc43)n2)CC1",
    "units": "%",
    "relational_operator": "<",
    "measured_value": 50
  },
  {
    "molecular_string": "O[C@H]1CC[C@H](Nc2nccc(-n3nnc4ccccc43)n2)CC1",
    "units": "%",
    "relational_operator": "=",
    "measured_value": 83
  },
  {
    "molecular_string": "O[C@H]1CC[C@H](Nc2nccc(-c3n[nH]c4ccccc34)n2)CC1",
    "units": "%",
    "relational_operator": "=",
    "measured_value": 90
  },
  {
    "molecular_string": "N[C@H]1CC[C@H](Nc2nccc(-n3nnc4ccccc43)n2)CC1",
    "units": "%",
    "relational_operator": "=",
    "measured_value": 100
  },
  {
    "molecular_string": "O[C@H]1CC[C@H](Nc2nccc(-n3ncc4ccccc43)n2)CC1",
    "units": "%",
    "relational_operator": "<",
    "measured_value": 50
  }
]

----------
Reported inhibition values for a set of molecules
- assayed_target: Dual specificity mitogen-activated protein kinase kinase 4 (Homo sapiens) (UniProt P45985)
- Sequence (P45985 whole entry): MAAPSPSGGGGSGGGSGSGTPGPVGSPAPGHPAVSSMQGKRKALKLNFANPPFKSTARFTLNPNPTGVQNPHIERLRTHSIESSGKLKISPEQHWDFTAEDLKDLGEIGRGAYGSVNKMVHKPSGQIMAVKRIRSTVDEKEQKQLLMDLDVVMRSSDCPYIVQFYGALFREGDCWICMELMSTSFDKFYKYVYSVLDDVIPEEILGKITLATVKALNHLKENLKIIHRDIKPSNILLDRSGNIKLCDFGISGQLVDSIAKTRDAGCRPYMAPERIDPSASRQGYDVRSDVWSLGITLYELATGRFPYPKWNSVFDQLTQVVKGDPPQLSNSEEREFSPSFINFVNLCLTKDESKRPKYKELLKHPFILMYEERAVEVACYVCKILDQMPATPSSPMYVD
- assay_protocol: Competitive binding affinity to MEK4 (unknown origin) at 10 uM in presence of ATP relative to control

[
  {
    "molecular_string": "O[C@H]1CC[C@H](Nc2nccc(-n3nnc4ccccc43)n2)CC1",
    "relational_operator": "=",
    "inhibition (%)": 99
  },
  {
    "molecular_string": "O[C@H]1CC[C@H](Nc2nccc(-n3ncc4ccccc43)n2)CC1",
    "relational_operator": "=",
    "inhibition (%)": 99
  },
  {
    "molecular_string": "CS(=O)(=O)CCCOc1cccc2c1ccn2-c1ccnc(N[C@H]2CC[C@H](C(=O)N3CCC(O)CC3)CC2)n1",
    "relational_operator": ">",
    "inhibition (%)": 85
  },
  {
    "molecular_string": "O[C@H]1CC[C@H](Nc2nccc(-n3ccc4ccccc43)n2)CC1",
    "relational_operator": "=",
    "inhibition (%)": 97
  }
]

----------
This listing pairs compounds with measured inhibition.
- assayed_target: Tyrosine-protein kinase ABL1 (Homo sapiens) (UniProt P00519)
- Sequence (P00519 whole entry): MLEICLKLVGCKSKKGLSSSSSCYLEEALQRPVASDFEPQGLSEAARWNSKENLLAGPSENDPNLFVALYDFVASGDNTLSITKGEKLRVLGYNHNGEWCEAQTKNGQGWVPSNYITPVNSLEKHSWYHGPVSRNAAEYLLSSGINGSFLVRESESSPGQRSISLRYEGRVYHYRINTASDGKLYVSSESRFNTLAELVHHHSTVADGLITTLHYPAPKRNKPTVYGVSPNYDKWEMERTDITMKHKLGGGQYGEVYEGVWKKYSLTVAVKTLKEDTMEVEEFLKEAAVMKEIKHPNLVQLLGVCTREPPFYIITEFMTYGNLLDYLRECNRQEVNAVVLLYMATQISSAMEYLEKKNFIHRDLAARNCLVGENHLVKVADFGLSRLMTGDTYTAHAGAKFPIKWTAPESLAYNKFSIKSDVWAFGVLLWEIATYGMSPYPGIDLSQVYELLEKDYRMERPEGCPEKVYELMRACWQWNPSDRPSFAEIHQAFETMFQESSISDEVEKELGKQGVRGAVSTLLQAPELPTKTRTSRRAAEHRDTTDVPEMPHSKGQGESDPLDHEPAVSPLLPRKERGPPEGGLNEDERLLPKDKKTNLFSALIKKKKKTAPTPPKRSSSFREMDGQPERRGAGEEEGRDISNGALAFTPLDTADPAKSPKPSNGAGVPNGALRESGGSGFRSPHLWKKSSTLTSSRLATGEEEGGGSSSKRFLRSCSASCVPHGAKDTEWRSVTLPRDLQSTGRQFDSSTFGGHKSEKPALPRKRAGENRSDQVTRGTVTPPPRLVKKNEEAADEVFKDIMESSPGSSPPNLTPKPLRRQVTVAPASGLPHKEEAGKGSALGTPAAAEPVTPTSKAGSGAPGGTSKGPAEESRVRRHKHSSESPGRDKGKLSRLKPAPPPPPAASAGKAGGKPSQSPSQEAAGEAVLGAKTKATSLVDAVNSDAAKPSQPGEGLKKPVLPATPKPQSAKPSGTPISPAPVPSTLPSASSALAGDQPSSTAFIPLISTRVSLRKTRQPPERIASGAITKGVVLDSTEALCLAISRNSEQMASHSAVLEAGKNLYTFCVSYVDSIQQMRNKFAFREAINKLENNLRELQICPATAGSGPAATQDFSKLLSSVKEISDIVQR
- assay_protocol: Competitive binding affinity to ABL1 (unknown origin) at 10 uM in presence of ATP relative to control
outcome_measure: inhibition

[
  {
    "molecular_string": "O[C@H]1CC[C@H](Nc2nccc(-c3n[nH]c4ccccc34)n2)CC1",
    "outcome_measure": "inhibition",
    "measured_value": "< 50%"
  },
  {
    "molecular_string": "O[C@H]1CC[C@H](Nc2nccc(-n3ncc4ccccc43)n2)CC1",
    "outcome_measure": "inhibition",
    "measured_value": "< 50%"
  },
  {
    "molecular_string": "O[C@H]1CC[C@H](Nc2nccc(-n3ccc4ccccc43)n2)CC1",
    "outcome_measure": "inhibition",
    "measured_value": "< 50%"
  },
  {
    "molecular_string": "N[C@H]1CC[C@H](Nc2nccc(-n3nnc4ccccc43)n2)CC1",
    "outcome_measure": "inhibition",
    "measured_value": "< 50%"
  },
  {
    "molecular_string": "O[C@H]1CC[C@H](Nc2nccc(-n3nnc4ccccc43)n2)CC1",
    "outcome_measure": "inhibition",
    "measured_value": "< 50%"
  },
  {
    "molecular_string": "O=C([C@H]1CC[C@H](Nc2nccc(-n3nnc4ccccc43)n2)CC1)N1CCOCC1",
    "outcome_measure": "inhibition",
    "measured_value": "92%"
  }
]

----------
- assayed_target: Casein kinase I isoform alpha-like (Homo sapiens)
- assay_protocol: Competitive binding affinity to CSNK1A1L (unknown origin) at 10 uM in presence of ATP relative to control
outcome_measure: inhibition

[
  {
    "molecular_string": "O[C@H]1CC[C@H](Nc2nccc(-n3ccc4ccccc43)n2)CC1",
    "measured_value": "74%"
  },
  {
    "molecular_string": "O[C@H]1CC[C@H](Nc2nccc(-n3ncc4ccccc43)n2)CC1",
    "measured_value": "91%"
  },
  {
    "molecular_string": "O[C@H]1CC[C@H](Nc2nccc(-n3nnc4ccccc43)n2)CC1",
    "measured_value": "100%"
  },
  {
    "molecular_string": "O[C@H]1CC[C@H](Nc2nccc(-c3n[nH]c4ccccc34)n2)CC1",
    "measured_value": "100%"
  }
]

----------
- assayed_target: Ribosomal protein S6 kinase alpha-1 (Homo sapiens, UniProt Q15418)
- Sequence (Q15418 whole entry, the tested form may be a part): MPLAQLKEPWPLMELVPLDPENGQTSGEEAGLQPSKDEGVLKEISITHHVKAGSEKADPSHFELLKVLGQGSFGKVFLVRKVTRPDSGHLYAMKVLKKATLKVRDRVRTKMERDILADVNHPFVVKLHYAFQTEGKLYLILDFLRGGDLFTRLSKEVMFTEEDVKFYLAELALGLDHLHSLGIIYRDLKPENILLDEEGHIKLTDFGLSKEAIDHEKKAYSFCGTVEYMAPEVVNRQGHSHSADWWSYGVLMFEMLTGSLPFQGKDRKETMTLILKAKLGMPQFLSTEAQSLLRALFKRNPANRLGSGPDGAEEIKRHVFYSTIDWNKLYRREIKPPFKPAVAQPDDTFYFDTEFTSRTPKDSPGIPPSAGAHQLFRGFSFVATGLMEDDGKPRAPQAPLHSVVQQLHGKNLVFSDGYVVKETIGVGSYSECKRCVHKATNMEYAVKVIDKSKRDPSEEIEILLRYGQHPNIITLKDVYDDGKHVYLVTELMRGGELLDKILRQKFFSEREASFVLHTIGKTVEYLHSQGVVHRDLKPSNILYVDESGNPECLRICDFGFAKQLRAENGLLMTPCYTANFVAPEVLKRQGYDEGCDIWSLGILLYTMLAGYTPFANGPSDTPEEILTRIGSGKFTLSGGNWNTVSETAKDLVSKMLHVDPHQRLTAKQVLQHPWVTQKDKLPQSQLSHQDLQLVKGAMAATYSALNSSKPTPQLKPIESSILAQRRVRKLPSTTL
- assay_protocol: Competitive binding affinity to RPS6KA1 kinase domain 1 (unknown origin) at 10 uM in presence of ATP relative to control
Item-by-item account of inhibition
outcome_measure: inhibition

[
  {
    "molecular_string": "O[C@H]1CC[C@H](Nc2nccc(-n3nnc4ccccc43)n2)CC1",
    "assayed_target": "Ribosomal protein S6 kinase alpha-1 (Homo sapiens, UniProt Q15418)",
    "measured_value": "100%"
  },
  {
    "molecular_string": "O[C@H]1CC[C@H](Nc2nccc(-n3ncc4ccccc43)n2)CC1",
    "assayed_target": "Ribosomal protein S6 kinase alpha-1 (Homo sapiens, UniProt Q15418)",
    "measured_value": "91%"
  },
  {
    "molecular_string": "O[C@H]1CC[C@H](Nc2nccc(-n3ccc4ccccc43)n2)CC1",
    "assayed_target": "Ribosomal protein S6 kinase alpha-1 (Homo sapiens, UniProt Q15418)",
    "measured_value": "66%"
  },
  {
    "molecular_string": "CS(=O)(=O)CCCOc1cccc2c1ccn2-c1ccnc(N[C@H]2CC[C@H](C(=O)N3CCC(O)CC3)CC2)n1",
    "assayed_target": "Ribosomal protein S6 kinase alpha-1 (Homo sapiens, UniProt Q15418)",
    "measured_value": "> 85%"
  }
]

----------
Here the recorded inhibition is given for each entry.
- assayed_target: Vascular endothelial growth factor receptor 1 (Homo sapiens) (UniProt P17948)
- Sequence (P17948 whole entry): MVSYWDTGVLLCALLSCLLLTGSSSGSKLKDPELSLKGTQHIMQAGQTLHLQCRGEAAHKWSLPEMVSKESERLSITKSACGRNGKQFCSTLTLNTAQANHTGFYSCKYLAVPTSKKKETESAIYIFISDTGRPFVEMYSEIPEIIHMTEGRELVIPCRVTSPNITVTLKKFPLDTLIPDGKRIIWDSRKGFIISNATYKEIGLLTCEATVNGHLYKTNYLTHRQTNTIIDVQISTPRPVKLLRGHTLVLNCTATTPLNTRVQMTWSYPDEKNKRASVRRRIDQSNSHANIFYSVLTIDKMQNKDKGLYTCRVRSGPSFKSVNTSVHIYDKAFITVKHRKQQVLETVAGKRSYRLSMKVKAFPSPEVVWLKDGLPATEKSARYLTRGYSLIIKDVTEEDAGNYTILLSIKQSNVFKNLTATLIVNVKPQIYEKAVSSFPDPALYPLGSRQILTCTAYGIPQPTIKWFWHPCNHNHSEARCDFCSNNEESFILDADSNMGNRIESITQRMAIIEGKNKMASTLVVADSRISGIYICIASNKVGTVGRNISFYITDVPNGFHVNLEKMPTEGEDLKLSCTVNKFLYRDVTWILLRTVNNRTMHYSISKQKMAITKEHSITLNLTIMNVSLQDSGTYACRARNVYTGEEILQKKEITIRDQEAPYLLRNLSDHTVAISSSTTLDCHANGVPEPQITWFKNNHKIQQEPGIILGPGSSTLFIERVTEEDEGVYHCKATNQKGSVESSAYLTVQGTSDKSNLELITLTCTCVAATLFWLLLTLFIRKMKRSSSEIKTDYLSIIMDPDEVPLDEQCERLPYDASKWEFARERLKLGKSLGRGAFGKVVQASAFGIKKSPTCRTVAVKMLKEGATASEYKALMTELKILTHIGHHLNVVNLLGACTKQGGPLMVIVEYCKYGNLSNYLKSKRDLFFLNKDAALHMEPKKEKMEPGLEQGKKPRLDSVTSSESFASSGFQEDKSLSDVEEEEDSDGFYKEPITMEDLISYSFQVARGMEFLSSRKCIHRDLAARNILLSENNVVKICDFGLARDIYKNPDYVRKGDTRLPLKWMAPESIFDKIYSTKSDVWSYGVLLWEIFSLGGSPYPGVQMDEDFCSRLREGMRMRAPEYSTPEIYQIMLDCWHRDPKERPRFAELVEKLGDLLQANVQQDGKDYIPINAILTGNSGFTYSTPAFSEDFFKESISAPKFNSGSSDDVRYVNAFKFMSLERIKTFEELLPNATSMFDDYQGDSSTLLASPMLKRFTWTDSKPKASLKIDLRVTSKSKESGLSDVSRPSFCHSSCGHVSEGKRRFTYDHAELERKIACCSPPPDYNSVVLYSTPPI
- assay_protocol: Competitive binding affinity to FLT1 (unknown origin) at 10 uM in presence of ATP relative to control

[
  {
    "molecular_string": "O[C@H]1CC[C@H](Nc2nccc(-n3nnc4ccccc43)n2)CC1",
    "relational_operator": "=",
    "inhibition [%]": 82
  },
  {
    "molecular_string": "O[C@H]1CC[C@H](Nc2nccc(-c3n[nH]c4ccccc34)n2)CC1",
    "relational_operator": "=",
    "inhibition [%]": 95
  },
  {
    "molecular_string": "O[C@H]1CC[C@H](Nc2nccc(-n3ncc4ccccc43)n2)CC1",
    "relational_operator": "=",
    "inhibition [%]": 71
  },
  {
    "molecular_string": "O[C@H]1CC[C@H](Nc2nccc(-n3ccc4ccccc43)n2)CC1",
    "relational_operator": "<",
    "inhibition [%]": 50
  }
]

----------
- assayed_target: Cyclin-dependent kinase 16 (Homo sapiens)
- assay_protocol: Competitive binding affinity to PCTK1 (unknown origin) at 10 uM in presence of ATP relative to control

[
  {
    "molecular_string": "O=C([C@H]1CC[C@H](Nc2nccc(-n3nnc4ccccc43)n2)CC1)N1CCOCC1",
    "inhibition (%)": 91
  },
  {
    "molecular_string": "O[C@H]1CC[C@H](Nc2nccc(-n3ncc4ccccc43)n2)CC1",
    "inhibition (%)": 99
  },
  {
    "molecular_string": "N[C@H]1CC[C@H](Nc2nccc(-n3nnc4ccccc43)n2)CC1",
    "inhibition (%)": 100
  },
  {
    "molecular_string": "O[C@H]1CC[C@H](Nc2nccc(-n3nnc4ccccc43)n2)CC1",
    "inhibition (%)": 100
  },
  {
    "molecular_string": "O[C@H]1CC[C@H](Nc2nccc(-c3n[nH]c4ccccc34)n2)CC1",
    "inhibition (%)": 100
  },
  {
    "molecular_string": "O[C@H]1CC[C@H](Nc2nccc(-n3ccc4ccccc43)n2)CC1",
    "inhibition (%)": 99
  }
]
